Please provide measured log10(MIC) for the entries that follow.
System: Candida parapsilosis
Test: Anti-fungal activity against Candida parapsilosis assessed as inhibition of fungal growth
Format: functional
Details: Lodderomyces parapsilosis; read-out: MIC
The figures below represent log10 of MIC, where MIC is stated in µM.

Example results:
molecule	assayed_target	log10(MIC)
CCOC(=O)C1=C(CN2CCN(C(=O)/C(=N/OC)c3csc(N)n3)CC2)NC(=O)NC1c1ccc(N(C)C)cc1 (configuration not stated)	Candida parapsilosis	2.61
CCOC(=O)C1=C(CN2CCN(C(=O)/C(=N/OC)c3csc(N)n3)CC2)NC(=O)NC1c1ccc(C(F)(F)F)cc1 (configuration not stated)	Candida parapsilosis	2.63
OC(Cn1cncn1)(Cn1cncn1)c1ccc(F)cc1F [FLUCONAZOLE]	Candida parapsilosis	1.11

# return log10(MIC) for each item in the list
1. CCCCc1nc(Cl)c(C2NC(=O)NC(CN3CCN(CC(=O)c4ccc(C)cc4)CC3)=C2C(=O)OCC)[nH]1 (configuration not stated)
2. CCOC(=O)C1=C(CN2CCN(C(=O)/C(=N/OC)c3csc(N)n3)CC2)NC(=O)NC1c1ccc(Cl)cc1Cl (configuration not stated)
3. CCOC(=O)C1=C(CN2CCN(C(=O)/C(=N/OC)c3csc(N)n3)CC2)NC(=O)NC1c1ccc(C#N)cc1 (configuration not stated)
4. CCOC(=O)C1=C(CN2CCN(C(=O)/C(=N/OC)c3csc(N)n3)CC2)NC(=O)NC1c1ccc(F)cc1F (configuration not stated)
5. CCOC(=O)C1=C(CN2CCN(C(=O)/C(=N/OC)c3csc(N)n3)CC2)NC(=O)NC1c1cccs1 (configuration not stated)
6. CCOC(=O)C1=C(CN2CCN(C(=O)/C(=N/OC)c3csc(N)n3)CC2)NC(=O)NC1c1ccc(O)c(Br)c1 (configuration not stated)

1: 2.66; 2: 2.65; 3: 2.66; 4: 2.67; 5: 2.68; 6: 2.62

# return log10(MIC) for each item in the list
1. CCOC(=O)C1=C(CN2CCN(C(=O)/C(=N/OC)c3csc(N)n3)CC2)NC(=O)NC1c1ccc(O)c(OC)c1 (configuration not stated)
2. CCOC(=O)C1=C(CN2CCN(C(=O)/C(=N/OC)c3csc(N)n3)CC2)NC(=O)NC1c1ccc(OC)c(OC)c1OC (configuration not stated)
3. CCCCc1nc(Cl)c(C2NC(=O)NC(CN3CCN(CC(O)c4nccs4)CC3)=C2C(=O)OCC)[nH]1 (configuration not stated)
4. CCCCc1nc(Cl)c(C2NC(=O)NC(CN3CCN(CC(=O)c4ccccc4)CC3)=C2C(=O)OCC)[nH]1 (configuration not stated)
5. CCCCc1nc(Cl)c(C2NC(=O)NC(CN3CCN(CC(=O)c4nccs4)CC3)=C2C(=O)OCC)[nH]1 (configuration not stated)
6. CCOC(=O)C1=C(CN2CCN(C(=O)/C(=N/OC)c3csc(N)n3)CC2)NC(=O)NC1c1nccs1 (configuration not stated)

1. 2.65
2. 2.60
3. 2.66
4. 2.67
5. 2.67
6. 2.68

# return log10(MIC) for each item in the list
1. CCCCc1nc(Cl)c(C2NC(=O)NC(CN3CCN(CC(=O)c4ccc(F)cc4)CC3)=C2C(=O)OCC)[nH]1 (configuration not stated)
2. CCCCc1nc(Cl)c(C2NC(=O)NC(CN3CCN(C(=O)/C(=N/OC)c4csc(N)n4)CC3)=C2C(=O)OCC)[nH]1 (configuration not stated)
3. CCOC(=O)C1=C(CN2CCN(C(=O)/C(=N/OC)c3csc(N)n3)CC2)NC(=O)NC1c1ccc(OC)cc1 (configuration not stated)

1: 2.66; 2: 2.63; 3: 2.67

# return log10(MIC) for each item in the list
1. CCOC(=O)C1=C(CN2CCN(C(=O)/C(=N/OC)c3csc(N)n3)CC2)NC(=O)NC1c1ccc(F)cc1 (configuration not stated)
2. CCOC(=O)C1=C(CN2CCN(C(=O)/C(=N/OC)c3csc(N)n3)CC2)NC(=O)NC1c1cccc(O)c1 (configuration not stated)
3. CCOC(=O)C1=C(CN2CCNCC2)NC(=O)NC1c1ccc2c(c1)c1ccccc1n2CC (configuration not stated)
4. CCCCc1nc(Cl)c(C2NC(=O)NC(CN3CCN(CC(=O)c4ccc(Cl)cc4)CC3)=C2C(=O)OCC)[nH]1 (configuration not stated)

1: 2.65; 2: 2.63; 3: 2.67; 4: 2.65

---

Please provide measured MIC for the entries that follow.
System: Staphylococcus aureus
Assay: Anti-bacterial activity against Staphylococcus aureus CMCC (B) 26001 assessed as inhibition of bacterial growth
Type: functional
Numbers only, in µM.

compound	assayed_target	MIC (µM)
CCOC(=O)C1=C(CN2CCN(C(=O)/C(=N/OC)c3csc(N)n3)CC2)NC(=O)NC1c1ccc(N(C)C)cc1 (centres undefined)	Staphylococcus aureus	449
CCCCc1nc(Cl)c(C2NC(=O)NC(CN3CCN(CC(=O)c4ccc(F)cc4)CC3)=C2C(=O)OCC)[nH]1 (centres undefined)	Staphylococcus aureus	57
CCOC(=O)C1=C(CN2CCN(C(=O)/C(=N/OC)c3csc(N)n3)CC2)NC(=O)NC1c1cccc(O)c1 (centres undefined)	Staphylococcus aureus	59

// below: MIC requested for another compound
Answer briefly: MIC recorded on Staphylococcus aureus for CCCCc1nc(Cl)c(C2NC(=O)NC(CN3CCN(CC(=O)c4ccccc4)CC3)=C2C(=O)OCC)[nH]1 (centres undefined) 59

---

Tested on: Candida albicans
Experiment: Anti-fungal activity against Candida albicans 90023 assessed as inhibition of fungal growth
Format: functional
Please provide measured MIC for the entries that follow.
Give bare numbers, in µM.

compound	MIC / µM
CCOC(=O)C1=C(CN2CCN(C(=O)/C(=N/OC)c3csc(N)n3)CC2)NC(=O)NC1c1ccc(F)cc1F (stereo not given)	15
CCOC(=O)C1=C(CN2CCN(C(=O)/C(=N/OC)c3csc(N)n3)CC2)NC(=O)NC1c1ccc(OC)c(OC)c1OC (stereo not given)	398
CCOC(=O)C1=C(CN2CCN(C(=O)/C(=N/OC)c3csc(N)n3)CC2)NC(=O)NC1c1nccs1 (stereo not given)	60

# return MIC for each item in the list
1. CCCCc1nc(Cl)c(C2NC(=O)NC(CN3CCN(CC(=O)c4ccccc4)CC3)=C2C(=O)OCC)[nH]1 (stereo not given)
2. CCOC(=O)C1=C(CN2CCN(C(=O)/C(=N/OC)c3csc(N)n3)CC2)NC(=O)NC1c1ccc(N(C)C)cc1 (stereo not given)

1: 15; 2: 52

---

System: Pseudomonas aeruginosa
Assay: Anti-bacterial activity against Pseudomonas aeruginosa ST235 assessed as inhibition of bacterial growth
Type: functional
Settings: Pseudomonas aeruginosa, ST235; read-out: MIC
assay_readout: MIC (µM)
Give bare numbers, in µM.

Example results:
compound	MIC / µM
CCOC(=O)C1=C(CN2CCN(C(=O)/C(=N/OC)c3csc(N)n3)CC2)NC(=O)NC1c1ccc(Cl)cc1Cl (centres undefined)	54
CCCCc1nc(Cl)c(C2NC(=O)NC(CN3CCN(CC(=O)c4ccc(Cl)cc4)CC3)=C2C(=O)OCC)[nH]1 (centres undefined)	111
CCOC(=O)C1=C(CN2CCN(C(=O)/C(=N/OC)c3csc(N)n3)CC2)NC(=O)NC1c1ccc(O)c(Br)c1 (centres undefined)	52

For the compound CCOC(=O)C1=C(CN2CCN(C(=O)/C(=N/OC)c3csc(N)n3)CC2)NC(=O)NC1c1ccc(C#N)cc1 (centres undefined) , give its measured MIC value. 58

---

Tested on: Pseudomonas aeruginosa
Assay: Anti-bacterial activity against Pseudomonas aeruginosa ST235 assessed as inhibition of bacterial growth
Type: functional
Settings: Pseudomonas aeruginosa, ST235; read-out: MIC
Please provide measured MIC for the entries that follow.
Answers are plain numbers, in µM.

molecule	quantity_unit	MIC
CCOC(=O)C1=C(CN2CCN(C(=O)/C(=N/OC)c3csc(N)n3)CC2)NC(=O)NC1c1cccs1 (centres undefined)	µM	480
CCOC(=O)C1=C(CN2CCN(C(=O)/C(=N/OC)c3csc(N)n3)CC2)NC(=O)NC1c1ccc(OC)cc1 (centres undefined)	µM	230
CCOC(=O)C1=C(CN2CCN(C(=O)/C(=N/OC)c3csc(N)n3)CC2)NC(=O)NC1c1nccs1 (centres undefined)	µM	30

# return MIC for each item in the list
1. CCCCc1nc(Cl)c(C2NC(=O)NC(CN3CCN(CC(=O)c4ccc(C)cc4)CC3)=C2C(=O)OCC)[nH]1 (centres undefined)
2. CCCCc1nc(Cl)c(C2NC(=O)NC(CN3CCN(CC(=O)c4nccs4)CC3)=C2C(=O)OCC)[nH]1 (centres undefined)
3. CCOC(=O)C1=C(CN2CCN(C(=O)/C(=N/OC)c3csc(N)n3)CC2)NC(=O)NC1c1ccc(O)c(OC)c1 (centres undefined)
4. CCOC(=O)C1=C(CN2CCN(C(=O)/C(=N/OC)c3csc(N)n3)CC2)NC(=O)NC1c1cccc(O)c1 (centres undefined)
5. CCOC(=O)C1=C(CN2CCN(C(=O)/C(=N/OC)c3csc(N)n3)CC2)NC(=O)NC1c1ccc(C(F)(F)F)cc1 (centres undefined)
6. CCOC(=O)C1=C(CN2CCN(C(=O)/C(=N/OC)c3csc(N)n3)CC2)NC(=O)NC1c1ccc(OC)c(OC)c1OC (centres undefined)
7. CCOC(=O)C1=C(CN2CCNCC2)NC(=O)NC1c1ccc2c(c1)c1ccccc1n2CC (centres undefined)

[58, 58, 48, 59, 54, 52, 222]

# return MIC for each item in the list
1. CCCCc1nc(Cl)c(C2NC(=O)NC(CN3CCN(CC(=O)c4ccccc4)CC3)=C2C(=O)OCC)[nH]1 (centres undefined)
2. CCCCc1nc(Cl)c(C2NC(=O)NC(CN3CCN(CC(O)c4nccs4)CC3)=C2C(=O)OCC)[nH]1 (centres undefined)
3. CCOC(=O)C1=C(CN2CCN(C(=O)/C(=N/OC)c3csc(N)n3)CC2)NC(=O)NC1c1ccc(N(C)C)cc1 (centres undefined)
4. CCOC(=O)C1=C(CN2CCN(C(=O)/C(=N/OC)c3csc(N)n3)CC2)NC(=O)NC1c1ccc(F)cc1F (centres undefined)

1: 118; 2: 199; 3: 225; 4: 57
